# test details: Cytotoxicity against human HuH7 cells assessed as cell viability at 50 uM after 24 hrs
readout type: viability at 24 h, 50 µM

Incoming: Specify viability at 24 h, 50 µM for C=C(C)[C@@H]1CC[C@]2(C(=O)Oc3ccc(C=O)cc3OC)CC[C@]3(C)[C@H](CC[C@@H]4[C@@]5(C)CCC(=O)C(C)(C)C5CC[C@]43C)[C@@H]12 (stereo partly drawn) [VANILLINYL BETULONATE] and stop.
Outgoing: 89%

Incoming: Identify viability at 24 h, 50 µM associated with the compound "C=C(C)[C@@H]1CC[C@]2(C#N)CC[C@]3(C)[C@H](CC[C@@H]4[C@@]5(C)CC[C@H](OC(C)=O)C(C)(C)[C@@H]5CC[C@]43C)[C@@H]12"
Outgoing: 69%

Incoming: Return viability at 24 h, 50 µM (reported value) for this compound: "C=C(C)[C@@H]1CC[C@]2(COC(=O)COc3cc(C(C)C)ccc3C)CC[C@]3(C)[C@H](CC[C@@H]4[C@@]5(C)CC[C@H](O)C(C)(C)[C@@H]5CC[C@]43C)[C@@H]12"
Outgoing: 103%

----------
As shown below, each of these compounds has a reported viability at 24 h, 50 µM value.
# test details: Cytotoxicity against human HuH7 cells assessed as cell viability at 50 uM after 24 hrs
Output spec: scalar in %, unitless text.

Record excerpt, results attached:
compound	unit of measurement	viability at 24 h, 50 µM
CC(=O)OC[C@]12CC[C@]3(C(C)C)O[C@]13[C@H]1CC[C@@H]3[C@@]4(C)CC[C@H](OC(C)=O)C(C)(C)[C@@H]4CC[C@@]3(C)[C@]1(C)CC2	%	92
CC(C)[C@@]12CC[C@]3(COC(=O)c4ccccc4)CC[C@]4(C)C(=C31)[C@H](C[C@@H]1[C@@]3(C)CC[C@H](OC(=O)c5ccccc5)C(C)(C)[C@@H]3CC[C@]14C)n1c(=O)n(-c3ccccc3)c(=O)n12	%	88
C=C(C)[C@@H]1CC[C@]2(COC(C)=O)CC[C@]3(C)[C@H](CC[C@@H]4[C@@]5(C)CC[C@H](O)C(C)(C)[C@@H]5CC[C@]43C)[C@@H]12	%	87
C=C(C)[C@@H]1CC[C@]2(COC(=O)/C=C/c3ccccc3)CC[C@]3(C)[C@H](CC[C@@H]4[C@@]5(C)CC[C@H](O)C(C)(C)[C@@H]5CC[C@]43C)[C@@H]12	%	96
CC(=O)OC[C@]12CC[C@]3(C(C)C)C1=C1[C@H](C[C@@H]4[C@@]5(C)CC[C@H](OC(C)=O)C(C)(C)[C@@H]5CC[C@@]4(C)[C@]1(C)CC2)n1c(=O)n(-c2ccccc2)c(=O)n13	%	87

Incoming: Tell us which viability at 24 h, 50 µM value is on record for C=C(C)[C@@H]1CC[C@]2(COC3CCCCO3)CC[C@]3(C)[C@H](CC[C@@H]4[C@@]5(C)CC[C@H](O)C(C)(C)[C@@H]5CC[C@]43C)[C@@H]12 (some centres undefined)
Outgoing: 92

Incoming: Input C=C(C)[C@@H]1CC[C@]2(C(=O)OC)CC[C@]3(C)[C@H](CC[C@@H]4[C@@]5(C)CCC(=O)C(C)(C)[C@@H]5CC[C@]43C)[C@@H]12 [METHYL BETULONATE] , output reported viability at 24 h, 50 µM.
Outgoing: 83

Incoming: Give the reported value of viability at 24 h, 50 µM for this record: C=C(C)[C@@H]1CC[C@]2(/C=N/O)CC[C@]3(C)[C@H](CC[C@@H]4[C@@]5(C)CC/C(=N\O)C(C)(C)[C@@H]5CC[C@]43C)[C@@H]12 [BETULIN-3,28-DIOXIME]
Outgoing: 80

Incoming: Indicate the recorded viability at 24 h, 50 µM value for this compound: "CC(C)[C@@]12CC[C@]3(CO)CC[C@]4(C)C(=C31)[C@H](C[C@@H]1[C@@]3(C)CC[C@H](O)C(C)(C)[C@@H]3CC[C@]14C)n1c(=O)n(-c3ccccc3)c(=O)n12"
Outgoing: 85
